Just for reference, patent US20200392225A1 is where these values come from.

# TESTED ON: T1, human NPR1 expressed on CHO-K1 cells (human, UniProt P16066 33-1061)
# T1 sequence: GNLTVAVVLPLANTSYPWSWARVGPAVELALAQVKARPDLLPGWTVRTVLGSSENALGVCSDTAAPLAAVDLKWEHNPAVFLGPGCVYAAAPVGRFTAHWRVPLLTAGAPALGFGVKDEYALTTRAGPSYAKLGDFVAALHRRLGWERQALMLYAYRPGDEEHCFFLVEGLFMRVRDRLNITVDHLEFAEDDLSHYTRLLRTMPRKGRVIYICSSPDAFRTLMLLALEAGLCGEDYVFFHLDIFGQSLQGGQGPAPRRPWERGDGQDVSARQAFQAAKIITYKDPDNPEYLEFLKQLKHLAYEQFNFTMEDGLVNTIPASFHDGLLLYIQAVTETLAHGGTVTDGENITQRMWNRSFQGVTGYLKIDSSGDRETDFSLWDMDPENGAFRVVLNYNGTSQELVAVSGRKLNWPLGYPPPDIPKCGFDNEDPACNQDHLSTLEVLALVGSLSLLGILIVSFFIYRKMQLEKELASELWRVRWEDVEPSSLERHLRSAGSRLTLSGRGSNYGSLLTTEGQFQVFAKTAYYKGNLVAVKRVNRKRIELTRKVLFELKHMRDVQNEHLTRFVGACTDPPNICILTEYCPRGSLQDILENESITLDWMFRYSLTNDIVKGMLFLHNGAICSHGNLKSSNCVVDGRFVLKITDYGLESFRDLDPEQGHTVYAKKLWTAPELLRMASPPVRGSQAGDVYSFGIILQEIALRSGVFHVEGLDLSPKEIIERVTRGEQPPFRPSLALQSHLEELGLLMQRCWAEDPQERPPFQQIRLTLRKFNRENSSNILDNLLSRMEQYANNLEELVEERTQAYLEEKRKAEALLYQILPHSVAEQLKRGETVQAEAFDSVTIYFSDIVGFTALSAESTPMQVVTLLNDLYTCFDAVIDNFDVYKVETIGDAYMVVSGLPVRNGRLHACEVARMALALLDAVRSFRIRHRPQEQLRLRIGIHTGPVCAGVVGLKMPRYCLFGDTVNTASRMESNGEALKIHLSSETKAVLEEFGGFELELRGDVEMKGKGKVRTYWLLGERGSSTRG
# TEST: cell-based or functional assay
Entries and their cGMP conc [nM] at 1 uM FabCys, +0.075 nM ANP values follow.
Give the value in nM but do not write nM after it.

Example entries begin here.
- YY07 FabCys (Fab, V domains shown) VH: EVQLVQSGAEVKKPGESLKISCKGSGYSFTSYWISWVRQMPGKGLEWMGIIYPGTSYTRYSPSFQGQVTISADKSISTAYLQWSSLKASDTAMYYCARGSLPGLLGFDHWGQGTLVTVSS VL: QSVLTQPPSVSGAPGQRVTISCTGSSSNIGAGYDVHWYQQLPGTAPKLLIYGNSNRPNGVPDRFSGSKSGTSASLAITGLQAEDEADYYCQSYDSPTSSSVFGGGTKLTVL: 88
- YY06 FabCys (Fab, V domains shown) VH: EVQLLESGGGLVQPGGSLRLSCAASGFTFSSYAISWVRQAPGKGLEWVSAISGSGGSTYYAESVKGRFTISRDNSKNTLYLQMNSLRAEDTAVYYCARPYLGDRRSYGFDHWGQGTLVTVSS VL: QSALTQPASVSGSPGQSITISCTGTSSDVGSYNLVSWYQQHPGKAPKLMIYEGSKRPSGVSNRFSGSKSGNTASLTISGLQAEDEADYYCSSYGFHIVVVVFGGGTKLTVL: 75

Query: I'd like to know its cGMP conc [nM] at 1 uM FabCys, +0.075 nM ANP. The binder in question is YY04 FabCys (Fab, V domains shown) VH: EVQLVESGGGLVKPGGSLRLSCAASGFTFSNYWISWVRQAPGKGLEWVGRIKSKTYGGTTDYAEPVKGRFTISRDDSKNTLYLQMNSLKTEDTAVYYCAREKYSIRARGHGDYGFDVWGQGTLVTVSS VL: DIQMTQSPSSLSASVGDRVTITCRASQGISNYLAWYQQKPGKVPKLLIYAASTLQSGVPSRFSGSGSGTDFTLTISSLQPEDVATYYCQQGYHAPFTFGQGTKVEIK
Response: 67

Query: I'd like to know its cGMP conc [nM] at 1 uM FabCys, +0.075 nM ANP. The binder in question is YY05 FabCys (Fab, V domains shown) VH: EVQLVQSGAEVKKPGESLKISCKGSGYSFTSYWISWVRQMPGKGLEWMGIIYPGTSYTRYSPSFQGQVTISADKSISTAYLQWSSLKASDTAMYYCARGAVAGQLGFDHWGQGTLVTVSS VL: QSVLTQPPSVSGAPGQRVTISCTGSSSNIGAGYDVHWYQQLPGTAPKLLIYGNSNRPSGVPDRFSGSKSGTSASLAITGLQAEDEADYYCQSYYTSSHGPVFGGGTKLTVL
Response: 227

Query: I'd like to know its cGMP conc [nM] at 1 uM FabCys, +0.075 nM ANP. The binder in question is YY01 FabCys (Fab, V domains shown) VH: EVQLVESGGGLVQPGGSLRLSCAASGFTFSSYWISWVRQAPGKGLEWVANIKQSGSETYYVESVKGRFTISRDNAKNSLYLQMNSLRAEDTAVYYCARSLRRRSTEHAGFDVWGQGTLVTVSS VL: DIQMTQSPSSLSASVGDRVTITCRASQGISNYLAWYQQKPGKVPKLLIYAASTLQSGVPSRFSGSGSGTDFTLTISSLQPEDVATYYCQQADKFPYTFGQGTKVEIK
Response: 46
